Target: T1, RIG-I (recombinant) (human? (GeneID 23586), UniProt O95786 1-925)
T1 sequence: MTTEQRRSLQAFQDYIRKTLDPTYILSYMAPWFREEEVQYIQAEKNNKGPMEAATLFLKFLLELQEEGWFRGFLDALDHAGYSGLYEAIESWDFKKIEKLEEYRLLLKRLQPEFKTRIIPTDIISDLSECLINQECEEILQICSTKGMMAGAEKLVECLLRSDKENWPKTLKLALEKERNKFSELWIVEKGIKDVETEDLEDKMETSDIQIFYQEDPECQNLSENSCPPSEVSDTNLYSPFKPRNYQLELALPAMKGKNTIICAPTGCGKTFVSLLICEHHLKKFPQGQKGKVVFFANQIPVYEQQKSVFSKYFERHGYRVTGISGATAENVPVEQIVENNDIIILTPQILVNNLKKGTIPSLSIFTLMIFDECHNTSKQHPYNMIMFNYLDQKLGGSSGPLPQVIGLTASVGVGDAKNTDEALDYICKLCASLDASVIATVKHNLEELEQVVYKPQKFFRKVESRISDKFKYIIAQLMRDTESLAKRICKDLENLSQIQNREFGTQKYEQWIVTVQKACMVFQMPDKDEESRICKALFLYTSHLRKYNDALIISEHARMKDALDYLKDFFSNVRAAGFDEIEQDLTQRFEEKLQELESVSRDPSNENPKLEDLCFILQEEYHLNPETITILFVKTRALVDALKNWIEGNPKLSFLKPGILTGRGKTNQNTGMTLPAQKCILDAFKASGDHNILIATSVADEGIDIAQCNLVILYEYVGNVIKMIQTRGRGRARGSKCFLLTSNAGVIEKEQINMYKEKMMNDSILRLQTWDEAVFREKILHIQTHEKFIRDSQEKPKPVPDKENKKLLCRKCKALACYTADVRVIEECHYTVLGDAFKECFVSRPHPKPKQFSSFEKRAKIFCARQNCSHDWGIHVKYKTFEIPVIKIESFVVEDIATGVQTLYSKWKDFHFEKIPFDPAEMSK
Assay: EMSA
MEASURE: pKd
One number for each entry, as −log10 of the molar value.

Query string: State the recorded pKd for this entry: 5'-pppG synthetic 24 bp dsRNA (dsRNA, 5'-ppp on sense strand only) RNA 1: GGCAAAAGCAGGGUGACAAAGACA RNA 2: UGUCUUUGUCACCCUGCUUUUGCC
Result string: 9.03

These data points were gathered from paper doi:10.1101/2023.12.22.573000.
